Origin of measurements: ChEMBL document CHEMBL3988442

TARGET ENTITY: Arginase-2, mitochondrial (Homo sapiens) (UniProt P78540)
Sequence (P78540 whole entry): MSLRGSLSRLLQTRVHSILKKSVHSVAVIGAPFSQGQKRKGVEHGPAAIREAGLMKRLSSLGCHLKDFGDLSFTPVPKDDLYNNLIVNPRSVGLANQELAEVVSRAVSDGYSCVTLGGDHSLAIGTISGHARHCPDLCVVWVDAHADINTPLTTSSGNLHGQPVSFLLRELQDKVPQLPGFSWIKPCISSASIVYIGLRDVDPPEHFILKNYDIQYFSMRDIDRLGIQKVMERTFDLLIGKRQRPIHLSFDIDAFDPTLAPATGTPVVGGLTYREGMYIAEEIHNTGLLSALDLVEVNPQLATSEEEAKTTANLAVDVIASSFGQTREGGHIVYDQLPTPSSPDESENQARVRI
ASSAY: in vitro enzyme assay to detect the production of urea directly proportional to the activity of Arginase II
Assay type: functional
Set-up: scale not given: in the data most compounds retested in dose-response had high values
TEST PARAMETERS: 33.3 µM
VALUE KIND: Percent Effect

MOLECULE	OBSERVED
O=C(NCC(O)CN1CCc2ccccc2C1)Nc1cccnc1 (centres undefined)	3.58%
O=C(NCC1CC1)C1CN(C(=O)c2cccs2)CC12CCOCC2 (centres undefined)	-52.5%
CC(=O)N1CCNCC1c1cccc(C(=O)N(C)C)c1 (centres undefined)	4.41%
O=C([C@H]1CCCO1)N1CC[C@H](O)[C@@H]1Cc1ccncc1	8.39%
CN(C)c1ncccc1CNS(=O)(=O)c1ccccc1F	2.66%
COCCc1noc(CN2CCCC2c2c(C)nn(C)c2C)n1 (centres undefined)	-0.887%
CN(CCC#N)C(=O)CN1CCCC1c1ccsc1 (centres undefined)	0.924%
c1cncc(-c2nccc(CN3CCCC3)n2)c1	-22%
COc1ccccc1[C@@H]1CN(C(=O)c2csc(C)n2)C[C@H]1C(=O)O	5.3%
COCCC(=O)N1CCn2c(COCC3CC3)cnc2C1C (centres undefined)	-3.24%
Cc1nccn1CC1CCCN1S(=O)(=O)Cc1ccccc1F (centres undefined)	1.14%
COCCn1cc(C(=O)N2CCCC2c2cc(C)no2)ccc1=O (centres undefined)	2.38%
CN(C)c1ccc(C(=O)NCC2(c3ccccc3)CCOCC2)cc1	-2.21%
CS(=O)(=O)NCCNC(=O)C1(c2cccc(Cl)c2)CC1	20.8%
COC[C@H]1CCC[C@]12CN(CCc1ccccc1)CCO2	-8.28%
CCN(CC1CCOC1)C(=O)Nc1ccc(N2CCCC2)nc1 (centres undefined)	2.87%
COc1c(CNCc2ccc(CN(C)C)cc2)c(C(C)C)nn1C	3.45%
Cc1nn(CCn2ccnc2-c2cc3n(n2)CCCNC3)c(C)c1Cl	6.25%
CCCn1[nH]cc/c1=N\C(=O)CN1CCOC(Cn2cc(C)cn2)C1 (centres undefined)	0.444%
Fc1ccccc1Cc1noc(CN2CCCC(CN3CCCC3)C2)n1 (centres undefined)	-2.45%
COCC1CN(C(=O)COc2ccccc2)Cc2cn(C)nc21 (centres undefined)	-8.39%
Cc1cc(NCc2cc3n(n2)CCCN(C(=O)N(C)C)C3)ncn1	1.05%
COc1ccc(CC(=O)NC2(C)CCS(=O)(=O)C2)cc1F (centres undefined)	-1.77%
Cc1ccc(-c2noc(CN3CCOC(Cn4cncn4)C3)n2)cc1 (centres undefined)	-2.03%
O=C(NCc1ccco1)[C@H]1C[C@@H]2CCN(c3ccncn3)C[C@@H]2O1	-56.5%
CCN(CC)CCNC(=O)c1ccn(COc2cc(C)cc(C)c2)n1	-8.28%
CC(C)CCN(C)C(=O)c1nc(S(C)(=O)=O)n2ccccc12	1.23%
COCC1CN(CC2CC2)Cc2nn(C)cc21 (centres undefined)	2.02%
COC(=O)c1cccn1C1CCN(C(=O)c2cc(C)ccc2O)CC1	0.712%
CCc1ccc(C(=O)N2CCCC(n3cncn3)C2)o1 (centres undefined)	-2.21%
CCOC(=O)N1CCN(c2nc(NCCCO)c3ccccc3n2)CC1	-0.88%
CC(C)NC(=O)Nc1ccc(CNCc2cccc(C#N)c2)cc1	-0.615%
c1ccc2oc(CCCN3CCOC(Cn4cccn4)C3)nc2c1 (centres undefined)	-3.16%
c1cnn(CC2CCCN2Cc2nc(-c3ccoc3)no2)c1 (centres undefined)	-4.88%
Cc1ccc(F)c(-n2nnc(C(=O)O)c2-c2ccncc2)c1	-2.37%
Cc1ccc(S(=O)(=O)N2C[C@H]3C[C@H](NC(=O)c4ccnn4C)[C@H]3C2)cc1	-3.02%
OCC1CCCN1c1cc(N2CCN(c3ccccn3)CC2)ncn1 (centres undefined)	3.58%
Cc1nc(-c2ccsc2)ccc1C(=O)O	2.65%
CC1CN(C)c2ccccc2CN1C(=O)CSc1ccncc1 (centres undefined)	2.73%
CCCN1CCN(C(=O)c2cnccn2)[C@H]2CS(=O)(=O)C[C@H]21	2.38%
Cc1noc(CN2CCOC(CN(C)C)C2)n1 (centres undefined)	2.77%
CCc1nc(C2CCCN2C(=O)c2nccnc2N)no1 (centres undefined)	0.82%
CCn1cc(CN(C)C(=O)c2cccc(CCC(C)(C)O)c2)cn1	1.04%
O=C(NCc1nn(-c2ccccc2)c2c1CCC2)NC1CC1	2.05%
CC(NC(=O)NCCCN1CCCCCC1)c1nncn1C (centres undefined)	-6.47%
COCCN1CCc2cc(C(=O)N(C)C)c(NCC3CC3)nc2CC1	-1.24%
Cn1cc(CN2CCc3onc(COc4cccnc4)c3C2)cn1	-5.11%
CCCc1nc(CN2CCCC2Cn2cncn2)cs1 (centres undefined)	-24.3%
CC(=O)c1ccc(N2CCCC(CO)(CCOc3ccccc3)C2)nc1 (centres undefined)	-22.1%
